reportedMetric: melting point

In [3]: df
Out[3]:
                                    compound  measuredresult
 0  COc1cc2c(Oc3cccc(NS(=O)(=O)c4ccc(Cl)s4)c3)ccnc2cc1OCCCN1CCN(C)CC1   162 to 163 °C
 1  COc1cc2c(Oc3ccc(NS(=O)(=O)c4ccc(F)c(F)c4)cc3F)ccnc2cc1OCCCN1CCCC(C)C1 (stereo not drawn)   120 to 122 °C
 2  COc1cc2c(Oc3ccc(NS(=O)(=O)c4csc5ccccc45)cc3F)ccnc2cc1OCCCN1CCN(C)CC1   112 to 114 °C
 3  COc1cc2c(Oc3ccc(NS(=O)(=O)c4csc5ccccc45)cc3F)ccnc2cc1OCCCN1CCCCC1C (stereo not drawn)   120 to 122 °C
 4  COc1cc2c(Oc3ccc(NS(=O)(=O)c4ccccc4C(F)(F)F)cc3OC)ccnc2cc1OCCCN1CCC(C)CC1   216 to 218 °C
 5  COc1cc2c(Oc3ccc(NS(=O)(=O)c4ccccc4C)cc3F)ccnc2cc1OCCCN1CCCC(C)C1 (stereo not drawn)    99 to 100 °C
 6  COc1cc2c(Oc3ccc(NS(=O)(=O)c4cc(F)ccc4F)cc3C)ccnc2cc1OCCCN1CCC(C)CC1   222 to 223 °C
 7  COc1cc2c(Oc3ccc(NS(=O)(=O)c4c(F)cccc4F)cc3F)ccnc2cc1OCCN1CCOCC1   182 to 183 °C
 8  CCn1cc(S(=O)(=O)Nc2ccc(Oc3ccnc4cc(OCCCN5CCCC(C)C5)c(OC)cc34)c(F)c2)cn1 (stereo not drawn)   152 to 154 °C
 9  COc1cc2c(Oc3ccc(NS(=O)(=O)c4cc(C)ccc4F)cc3F)ccnc2cc1OCCCN1CCCC(C)C1 (stereo not drawn)   149 to 151 °C
10  COc1cc2c(Oc3ccc(NS(=O)(=O)c4ccc(C)s4)cc3F)ccnc2cc1OCCCN1CCCC(C)C1 (stereo not drawn)    99 to 101 °C
11  COc1cc2c(Oc3ccc(NS(=O)(=O)c4ccc(Cl)cc4F)cc3F)ccnc2cc1OCCCN1CCN(C)CC1   106 to 110 °C
12  COc1cc(S(=O)(=O)Nc2ccc(Oc3ccnc4cc(OCCCN5CCN(C)CC5)c(OC)cc34)c(F)c2)ccc1F   167 to 169 °C
13  COc1cc2c(Oc3ccc(NS(=O)(=O)c4ccn(C)n4)cc3F)ccnc2cc1OCCCN1CCCCC1   167 to 168 °C
14  COc1cc2c(Oc3ccc(NS(=O)(=O)c4cccc(OC(F)F)c4)cc3F)ccnc2cc1OCCCN1CCN(C)CC1     95 to 97 °C
